# Test system: N-acetyl-β-D-glucosaminidase
# procedure-details: Glycosidase inhibition, N-acetyl-β-D-glucosaminidase
# Assay type: biochemical, Bovine kidney
# condition-parameters: 1 mg/ml
% inhibition N-acetyl-β-gluc values for the molecules below.
measured-property: % inhibition N-acetyl-β-gluc (%)

[[record]]
molecule = "OC[C@H]1[C@@H](O)[C@H](O)[C@@H]2[C@@H](O)[C@H](O)CN21 [Compound 21, 3,6,7,7a-tetraepi-casuarine]"
target_under_test = "N-acetyl-β-D-glucosaminidase"
measured_property = "% inhibition N-acetyl-β-gluc"
test_result = 27

[[record]]
molecule = "OC[C@H]1[C@@H](O)[C@H](O)[C@H]2[C@H](O)[C@@H](O)CN21 [3-epi-casuarine (14), 3-epi-casuarine]"
target_under_test = "N-acetyl-β-D-glucosaminidase"
measured_property = "% inhibition N-acetyl-β-gluc"
test_result = "−1"

[[record]]
molecule = "OC[C@H]1[C@@H](O)[C@H](O)[C@H]2[C@@H](O)[C@@H](O)CN21 [3,7-diepi-casuarine (10)]"
target_under_test = "N-acetyl-β-D-glucosaminidase"
measured_property = "% inhibition N-acetyl-β-gluc"
test_result = "−6"

[[record]]
molecule = "OC[C@@H]1[C@@H](O)[C@H](O)[C@H]2[C@H](O)[C@@H](O)CN21 [casuarine (8)]"
target_under_test = "N-acetyl-β-D-glucosaminidase"
measured_property = "% inhibition N-acetyl-β-gluc"
test_result = 14

[[record]]
molecule = "OC[C@H]1[C@@H](O)[C@H](O)[C@H]2[C@@H](O)[C@H](O)CN21 [Compound 12, 3,6,7-triepi-casuarine]"
target_under_test = "N-acetyl-β-D-glucosaminidase"
measured_property = "% inhibition N-acetyl-β-gluc"
test_result = 19

[[record]]
molecule = "O[C@H]1[C@H](O)[C@@H](O)CN2CC[C@H](O)[C@H]12 [Castanospermine (20), Castanospermine, reference compound]"
target_under_test = "N-acetyl-β-D-glucosaminidase"
measured_property = "% inhibition N-acetyl-β-gluc"
test_result = 16

